Tested on: 327498-153-R-J2-PDC multicell spheroid viability
Experiment: Anticancer human tumor 327498-153-R-J2-PDC patient-derived uterine carcinosarcoma cell line growth inhibition [IpAb]
Settings: second compound 1 µM; first compound 0.316 µM; hits give low values
recorded.metric: viability, T/C (%)
Reply with just the number (in %).

compound	recorded.metric	value.measured
C=CC(=O)N1CCN(c2nc(=O)n(-c3c(C)ccnc3C(C)C)c3nc(-c4c(O)cccc4F)c(F)cc23)C(C)C1 (stereo not given) + CCN1CCN(Cc2ccc(Nc3ncc(F)c(-c4cc(F)c5nc(C)n(C(C)C)c5c4)n3)nc2)CC1	viability, T/C	29.1
COc1c(OCCCN2CCOCC2)ccc2c3n(c(=NC(=O)c4cnc(N)nc4)nc12)CCN3 + CC(C)NCC(C(=O)N1CCN(c2ncnc3c2C(C)CC3O)CC1)c1ccc(Cl)cc1	viability, T/C	9.37
C=CC(=O)N1CCN(c2nc(=O)n(-c3c(C)ccnc3C(C)C)c3nc(-c4c(O)cccc4F)c(F)cc23)C(C)C1 (stereo not given) + CC(C)NCC(C(=O)N1CCN(c2ncnc3c2C(C)CC3O)CC1)c1ccc(Cl)cc1	viability, T/C	22.4
Cn1nccc1Nc1nccc(-c2ccn(C(CO)c3ccc(Cl)c(F)c3)c(=O)c2)n1 (stereo not given) + CC(C)NCC(C(=O)N1CCN(c2ncnc3c2C(C)CC3O)CC1)c1ccc(Cl)cc1	viability, T/C	33.8

Provide measured viability, T/C value, entry: Cn1ncc(Cl)c1-c1cc(C(=O)NC(CN)Cc2cccc(F)c2)sc1Cl (stereo not given) + CC(C)NCC(C(=O)N1CCN(c2ncnc3c2C(C)CC3O)CC1)c1ccc(Cl)cc1 55.3

###

Test system: 327498-153-R-J2-PDC multicell spheroid viability
Test: Anticancer human tumor 327498-153-R-J2-PDC cell line growth inhibition [IpAb];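 note: spheroids exposed to agents for 7 days; 100% = DMSO vehicle control viability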
Details: second compound 1 µM; first compound 3.16 µM; hits give low values
recorded.metric: viability, T/C (%)
# output: bare number, implied unit %

Some entries whose results are on file:
compound	target.desc	viability, T/C [%]
Cn1nccc1Nc1nccc(-c2ccn(C(CO)c3ccc(Cl)c(F)c3)c(=O)c2)n1 (stereo not given) + CC(C)NCC(C(=O)N1CCN(c2ncnc3c2C(C)CC3O)CC1)c1ccc(Cl)cc1	327498-153-R-J2-PDC multicell spheroid viability	30.5
Cn1ncc(Cl)c1-c1cc(C(=O)NC(CN)Cc2cccc(F)c2)sc1Cl (stereo not given) + CC(C)NCC(C(=O)N1CCN(c2ncnc3c2C(C)CC3O)CC1)c1ccc(Cl)cc1	327498-153-R-J2-PDC multicell spheroid viability	39.8
CC1(C)CCC(CN2CCN(c3ccc(C(=O)NS(=O)(=O)c4ccc(NCC5CCOCC5)c([N+](=O)[O-])c4)c(Oc4cnc5[nH]ccc5c4)c3)CC2)=C(c2ccc(Cl)cc2)C1 + CCN1CCN(Cc2ccc(Nc3ncc(F)c(-c4cc(F)c5nc(C)n(C(C)C)c5c4)n3)nc2)CC1	327498-153-R-J2-PDC multicell spheroid viability	54.8
CC1(C)CCC(CN2CCN(c3ccc(C(=O)NS(=O)(=O)c4ccc(NCC5CCOCC5)c([N+](=O)[O-])c4)c(Oc4cnc5[nH]ccc5c4)c3)CC2)=C(c2ccc(Cl)cc2)C1 + CC(C)NCC(C(=O)N1CCN(c2ncnc3c2C(C)CC3O)CC1)c1ccc(Cl)cc1	327498-153-R-J2-PDC multicell spheroid viability	54.8

Shifting focus to the compound that follows.
Recall the reported viability, T/C of C=CC(=O)N1CCN(c2nc(=O)n(-c3c(C)ccnc3C(C)C)c3nc(-c4c(O)cccc4F)c(F)cc23)C(C)C1 (stereo not given) + CC(C)NCC(C(=O)N1CCN(c2ncnc3c2C(C)CC3O)CC1)c1ccc(Cl)cc1 when tested on 327498-153-R-J2-PDC multicell spheroid viability. 21.1
